Values from ChEMBL document CHEMBL1201862

Test system: COLO 205
TEST_DESCRIPTION: NCI tumour cell line growth inhibition, 48 h
Active and inactive are the calls of the source. Rule as the data show it: active = GI50 up to about 1.1 µM and inactive = higher.
Lab note: assign the record to one of 1 = active, -1 = inactive

# MOLECULE, DISCRETE_LABEL
data = [
    ("COc1ccc2[nH]c3c(C)c4ncccc4c(C)c3c2c1", -1),
    ("CCOC(=O)C1=C(C)Nc2ccccc2S1", -1),
    ("CC1COS(=O)N1c1ccccc1 (centres undefined)", -1),
]

query: # fetch the recorded call for Cn1cnc(CCc2ccccc2)n1 here
result: -1

query: What would you report for O=C(CCc1ccc(O)cc1)c1c(O)cc(O)cc1OC1OC(CO)C(O)C(O)C1O (centres undefined) ?
result: -1

query: Please answer likewise for Cc1nc2sccn2c1C(=O)NN
result: -1

query: How about Cc1cn(S(=O)(=O)c2ccccc2)c2c(OCc3ccccc3)cc([N+](=O)[O-])cc12 ?
result: -1
